Values compiled from patent US20220041606A1.

- tested on: human mAChR M1 (Homo sapiens)
- Construct: host or cells: CHO-K1 cells (ATCC), stably transfected using Lipofectamine2000
- Sequence (P11229 1-460): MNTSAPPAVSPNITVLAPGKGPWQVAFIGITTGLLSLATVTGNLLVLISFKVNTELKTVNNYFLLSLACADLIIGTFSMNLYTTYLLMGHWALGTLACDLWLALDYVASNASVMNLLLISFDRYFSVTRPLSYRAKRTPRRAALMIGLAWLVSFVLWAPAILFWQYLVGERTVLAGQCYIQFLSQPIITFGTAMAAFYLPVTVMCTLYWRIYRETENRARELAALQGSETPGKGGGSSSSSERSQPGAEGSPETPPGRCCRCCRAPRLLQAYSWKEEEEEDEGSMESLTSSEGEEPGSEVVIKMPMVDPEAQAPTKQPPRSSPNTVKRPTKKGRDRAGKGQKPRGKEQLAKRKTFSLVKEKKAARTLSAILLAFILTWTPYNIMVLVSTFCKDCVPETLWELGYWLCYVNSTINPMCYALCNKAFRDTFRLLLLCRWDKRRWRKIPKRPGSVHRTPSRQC
- experiment notes: mAChR M1 cell-based functional assay (calcium mobilization), agonist activity upon compound addition
- assay conditions: CHO-K1 cells expressing hM1; relative to the maximum for acetylcholine
recorded metric: Emax

>>> print(df.to_string())
                                   molecule                      tested_on  data_value
0  Cn1cc(-c2ccc(Cn3cc(C(=O)N[C@H]4CCCC[C@@H]4O)c4nccn4c3=O)c(F)c2)cn1  human mAChR M1 (Homo sapiens)         63%
1  Cn1cc2c(-c3cc(F)c(Cn4cc(C(=O)N[C@@H]5CC[C@H]5O)c5occc5c4=O)c(F)c3)cccc2n1 (stereo in doubt)  human mAChR M1 (Homo sapiens)        < 5%
2  Cc1cn2c(=O)n(Cc3ccc(-c4ccn(C)n4)cc3F)cc(C(=O)N[C@H]3CCOC[C@@H]3O)c2n1  human mAChR M1 (Homo sapiens)        < 5%
3  Cn1ccc(-c2ccc(Cn3cc(C(=O)N[C@H]4CCC[C@@H]4O)c4ncccc4c3=O)c(F)c2)n1  human mAChR M1 (Homo sapiens)        < 5%

---

- tested on: human mAChR M1 (Homo sapiens, UniProt P11229)
- Construct: host or cells: CHO-K1 cells (ATCC), stably transfected using Lipofectamine2000
- experiment notes: mAChR M1 cell-based functional assay (calcium mobilization), agonist activity upon compound addition
- assay conditions: CHO-K1 cells expressing hM1; compound alone, before acetylcholine addition
# EC50 annotations
recorded metric: EC50

                           molecular_string  recorded_metric  data_value
0  Cn1ccc(-c2ccc(Cn3cc(C(=O)N[C@H]4CCC[C@@H]4O)c4ncccc4c3=O)c(F)c2)n1             EC50     > 10 µM
1  CC(C)[C@@H](CO)NC(=O)c1cn(Cc2c(F)cc(-c3cccc4nn(C)cc34)cc2F)c(=O)c2nccnc12             EC50     > 10 µM
2  Cn1cc(-c2ccc(Cn3cc(C(=O)N[C@H]4CCCCC[C@@H]4O)c4nccn4c3=O)c(F)c2)cn1             EC50     2.96 µM
3  Cc1cn2c(=O)n(Cc3c(F)cc(-c4cccc5nn(C)cc45)cc3F)cc(C(=O)N[C@H]3CCOC[C@@H]3O)c2n1             EC50     > 10 µM
